experiment: Solubility in water / aqueous solubility of HPPs and parent drugs; conditions: water
Reported solubility is given for each of the following compounds.
MEASURED_QUANTITY: solubility (µg/mL)

[
  {
    "COMPOUND": "COc1ccc2c(c1)c(CC(=O)OCC(=O)O)c(C)n2C(=O)c1ccc(Cl)cc1",
    "UNIT": "µg/mL",
    "OPERATOR_SYMBOL": "=",
    "VALUE_MEASURED": 100
  },
  {
    "COMPOUND": "O=C(O)Cc1ccccc1Oc1ccc(Cl)cc1Cl",
    "UNIT": "µg/mL",
    "OPERATOR_SYMBOL": "=",
    "VALUE_MEASURED": 100
  },
  {
    "COMPOUND": "CC(C(=O)O)c1ccc2c(c1)CC(=O)c1ccccc1S2 (centres unmarked) [Zaltoprofen, zaltoprofen, reference compound]",
    "UNIT": "µg/mL",
    "OPERATOR_SYMBOL": "=",
    "VALUE_MEASURED": 100
  },
  {
    "COMPOUND": "CC(C(=O)O)c1ccc2c(c1)Cc1cccnc1O2 (centres unmarked)",
    "UNIT": "µg/mL",
    "OPERATOR_SYMBOL": "=",
    "VALUE_MEASURED": 200
  },
  {
    "COMPOUND": "Cc1ccc(Cl)c(Nc2ccccc2C(=O)O)c1Cl [Meclofenamic acid, meclofenamic acid, reference compound]",
    "UNIT": "µg/mL",
    "OPERATOR_SYMBOL": "<",
    "VALUE_MEASURED": 100
  },
  {
    "COMPOUND": "CC(C(=O)O)c1ccc(CC2CCCC2=O)cc1 (centres unmarked) [Loxoprofen, loxoprofen, reference compound]",
    "UNIT": "µg/mL",
    "OPERATOR_SYMBOL": "=",
    "VALUE_MEASURED": 100
  },
  {
    "COMPOUND": "CCN(CC)CCOC(=O)c1ccccc1Nc1cccc(Cl)c1C",
    "UNIT": "µg/mL",
    "OPERATOR_SYMBOL": ">",
    "VALUE_MEASURED": 400000
  },
  {
    "COMPOUND": "O=C(O)c1ccccc1O",
    "UNIT": "µg/mL",
    "OPERATOR_SYMBOL": "=",
    "VALUE_MEASURED": 100
  },
  {
    "COMPOUND": "CC(C(=O)O)c1ccc2c(c1)[nH]c1ccc(Cl)cc12 (centres unmarked)",
    "UNIT": "µg/mL",
    "OPERATOR_SYMBOL": "=",
    "VALUE_MEASURED": 100
  },
  {
    "COMPOUND": "O=C(O)c1ccccc1Nc1cccc(C(F)(F)F)c1",
    "UNIT": "µg/mL",
    "OPERATOR_SYMBOL": "<",
    "VALUE_MEASURED": 100
  },
  {
    "COMPOUND": "O=C(O)COc1nn(Cc2ccccc2)c2ccccc12 [Bendazac, bendazac, reference compound]",
    "UNIT": "µg/mL",
    "OPERATOR_SYMBOL": "=",
    "VALUE_MEASURED": 100
  },
  {
    "COMPOUND": "O=C(O)Cc1cn(-c2ccccc2)nc1-c1ccc(Cl)cc1 [Lonazolac, lonazolac, reference compound]",
    "UNIT": "µg/mL",
    "OPERATOR_SYMBOL": "=",
    "VALUE_MEASURED": 100
  },
  {
    "COMPOUND": "O=C(O)c1cccnc1Nc1cccc(C(F)(F)F)c1",
    "UNIT": "µg/mL",
    "OPERATOR_SYMBOL": "<",
    "VALUE_MEASURED": 100
  },
  {
    "COMPOUND": "Cc1cc(CC(=O)O)n(C)c1C(=O)c1ccc(Cl)cc1 [Zomepirac, zomepirac]",
    "UNIT": "µg/mL",
    "OPERATOR_SYMBOL": "=",
    "VALUE_MEASURED": 200
  },
  {
    "COMPOUND": "Nc1c(CC(=O)O)cccc1C(=O)c1ccccc1",
    "UNIT": "µg/mL",
    "OPERATOR_SYMBOL": "=",
    "VALUE_MEASURED": 200
  },
  {
    "COMPOUND": "Cc1cnc(NC(=O)C2=C(O)c3ccccc3S(=O)(=O)N2C)s1 [Meloxicam, meloxicam, reference compound]",
    "UNIT": "µg/mL",
    "OPERATOR_SYMBOL": "<",
    "VALUE_MEASURED": 100
  },
  {
    "COMPOUND": "O=C(O)C(Cl)c1ccc(C2CCCCC2)c(Cl)c1 (centres unmarked)",
    "UNIT": "µg/mL",
    "OPERATOR_SYMBOL": "=",
    "VALUE_MEASURED": 200
  }
]
